TEST DETAILS: in vivo
MEASUREMENT SETUP: female, Jcl:ICR, mouse, po
READOUT LABEL: LD50 at 14 days

Ask: Using the record for COc1cc(C=NNC(=O)c2snnc2C)ccc1O , report its LD50 at 14 days.
Reply: > 2500 mg/kg
